- Tested on: MSSP (Methicillin-Susceptible Staphylococcus pseudintermedius)
- Protocol Summary: MIC against selected strains of MSSP
- Format: cell-based
- Design: unit not given beside the values
- Condition Label: strain 72036, Table 5
Measured Effect on MSSP 72036 accompanies every entry in the list below.
Would you mind answering with just the numeric figure?

Examples with their reported Effect on MSSP 72036 follow.
Substance | Effect on MSSP 72036
105 (KWCFRVCYRGICYRRCRN; Artificial Antimicrobial peptide) [compound 105] | 1.6
98 (KWCVRVCYRGICYRRCRD; Artificial Antimicrobial peptide) [compound 98] | 1.6
113 (KWCFRVCYRGICYRRCAD; Artificial Antimicrobial peptide) [compound 113] | 1.6
31 (PWCFRVCYRGICYRRCRD; Artificial Antimicrobial peptide) [compound 31] | 1.6

# input // fetch MSSP (Methicillin-Susceptible Staphylococcus pseudintermedius) Effect on MSSP 72036 for 112 (KWCFRVCYRGICYRRCKD; Artificial Antimicrobial peptide) [compound 112]
# output 1.6

# input Lab note: need Effect on MSSP 72036 for 28 (PKWCFRVCYRGICYRRCR; Artificial Antimicrobial peptide) [compound 28] on MSSP (Methicillin-Susceptible Staphylococcus pseudintermedius), anyone have it?
# output 1.6

---

- Test system: MSSP (Methicillin-Susceptible Staphylococcus pseudintermedius)
- Protocol Summary: MIC against selected strains of MSSP
- Format: cell-based
- Set-up: key: MIC in μM
- Condition Label: strain 78032, Table 3
- Protocol: Peptides according to SEQ ID NOs as listed in Table 1 were prepared by a commercial manufacturer (CS Bio, Menlo Park, Calif.) using solid phase synthesis. Antimicrobial activity was assessed by determining the Minimal Inhibitory Concentration (MIC) against S. aureus and E. coli. Briefly, Microbroth MICs were performed using CLSI methodology (VET01-S2). […] The MIC was determined visually at the first well of no visible growth at the corresponding concentration. […]
Value Type: MIC MSSP 78032
Form rule: numeric answer, no unit written next to it.

Substance | Quantitative Readout
5 (KWCFYVCYRGICYRRCRD; Artificial Antimicrobial peptide) [compound 5] | 1.6
3 (GWCFRVCYRGICYRRCRD; Artificial Antimicrobial peptide) [compound 3] | 1.6
8 (KWCFRVCYRGACYRRCRD; Artificial Antimicrobial peptide) [compound 8] | 1.6

Below: the item to evaluate.
# input Given the entry 11 (KWCFRVCYRGICYRRCND; Artificial Antimicrobial peptide) [compound 11] , report its measured MIC MSSP 78032.
# output 0.8

---

- Test system: MSSP (Methicillin-Susceptible Staphylococcus pseudintermedius)
- Protocol Summary: MIC against selected strains of MSSP
- Type: cell-based
- Parameters: unit: µM
- Condition Label: strain 84658, Table 5
# Effect on MSSP 84658 annotations
Form field (numeric): enter value without unit.

Substance | Quantitative Readout
107 (KWCFRVCWRGICYRRCRD; Artificial Antimicrobial peptide) [compound 107] | 1.6
99 (KWCFFVCYRGICYRRCRD; Artificial Antimicrobial peptide) [compound 99] | 3.1
97 (KRCFRVCYRGICYRRCRD; Artificial Antimicrobial peptide) [compound 97] | 3.1

# input Form field: reported Effect on MSSP 84658 of 114 (KWCFRVCYRGICYRRCRR; Artificial Antimicrobial peptide) [compound 114]
# output 3.1

# input Please look up its Effect on MSSP 84658: 106 (KWCWRVCYRGICYRRCRD; Artificial Antimicrobial peptide) [compound 106]
# output 1.6

# input Given the substance 108 (KWCFRVCYGGICYRRCRD; Artificial Antimicrobial peptide) [compound 108] , what is its reported Effect on MSSP 84658?
# output 3.1

# input Bench note: what Effect on MSSP 84658 did 105 (KWCFRVCYRGICYRRCRN; Artificial Antimicrobial peptide) [compound 105] show?
# output 3.1

# input Give the measured Effect on MSSP 84658 of 116 (KWCFYVCYRGICYRRCND; Artificial Antimicrobial peptide) [compound 116] .
# output 1.6

# input Can you look up the measured Effect on MSSP 84658 of 31 (PWCFRVCYRGICYRRCRD; Artificial Antimicrobial peptide) [compound 31] for me?
# output 1.6

# input Requested field: Effect on MSSP 84658. Item: 109 (KWCFRVCYRRICYRRCRD; Artificial Antimicrobial peptide) [compound 109]
# output 1.6

# input Query (substance): 112 (KWCFRVCYRGICYRRCKD; Artificial Antimicrobial peptide) [compound 112] ; field requested: Effect on MSSP 84658
# output 1.6

# input Name the recorded Effect on MSSP 84658 for 28 (PKWCFRVCYRGICYRRCR; Artificial Antimicrobial peptide) [compound 28] .
# output 1.6

# input Name the recorded Effect on MSSP 84658 for 104 (KWCFRVCYFGICYRRCRD; Artificial Antimicrobial peptide) [compound 104] .
# output 1.6

---

- Test system: Canine-derived epithelial keratinocyte (CPEK) cells
- Type: cell-based
Value Type: CPEK (50 μM)

# input Could you share which CPEK (50 μM) value was measured for 96 (KWCFRVCYGRICYRRCRD; Artificial Antimicrobial peptide) [compound 96] ?
# output 51.9

# input Suppose we examine the substance 30 (PWCFRVCYRGICYRRCR; Artificial Antimicrobial peptide) [compound 30] ; what CPEK (50 μM) value has been reported?
# output 17.0

# input Request the reported CPEK (50 μM) associated with 106 (KWCWRVCYRGICYRRCRD; Artificial Antimicrobial peptide) [compound 106]
# output 25.2

---

- Test system: MSSP (Methicillin-Susceptible Staphylococcus pseudintermedius)
- Protocol Summary: MIC against selected strains of MSSP
- Assay type: cell-based
- Parameters: unit not given beside the values
- Condition Label: strain 72036, Table 5
A collection of substances and their measured Effect on MSSP 72036
API note: the answer field is a bare number with no unit suffix.

Sample records with Effect on MSSP 72036:
Substance | Quantitative Readout
107 (KWCFRVCWRGICYRRCRD; Artificial Antimicrobial peptide) [compound 107] | 1.6
117 (GWCFYVCYRGICYRRCRD; Artificial Antimicrobial peptide) [compound 117] | 1.6
102 (KWCFRACYRGICYRRCRD; Artificial Antimicrobial peptide) [compound 102] | 1.6
103 (KWCFRVCKRGICYRRCRD; Artificial Antimicrobial peptide) [compound 103] | 3.1
99 (KWCFFVCYRGICYRRCRD; Artificial Antimicrobial peptide) [compound 99] | 1.6
109 (KWCFRVCYRRICYRRCRD; Artificial Antimicrobial peptide) [compound 109] | 1.6

Now let's try a different one.
# input Find the recorded Effect on MSSP 72036 belonging to 104 (KWCFRVCYFGICYRRCRD; Artificial Antimicrobial peptide) [compound 104] and report it.
# output 3.1

---

- Test system: MSSP (Methicillin-Susceptible Staphylococcus pseudintermedius)
- Protocol Summary: MIC against selected strains of MSSP
- Type: cell-based
- Design: unit: µM
- Condition Label: strain 77378, Table 5
Listed next: entries and their corresponding Effect on MSSP 77378.
Give the figure by itself; no unit, no explanation.

Below, 3 substances whose answers are already recorded.
Substance | Value Type | Quantitative Readout
106 (KWCWRVCYRGICYRRCRD; Artificial Antimicrobial peptide) [compound 106] | Effect on MSSP 77378 | 0.8
117 (GWCFYVCYRGICYRRCRD; Artificial Antimicrobial peptide) [compound 117] | Effect on MSSP 77378 | 0.8
107 (KWCFRVCWRGICYRRCRD; Artificial Antimicrobial peptide) [compound 107] | Effect on MSSP 77378 | 1.6

Let us move to another entry and its Effect on MSSP 77378.
# input Returns the measured Effect on MSSP 77378 for the input substance. Input: 31 (PWCFRVCYRGICYRRCRD; Artificial Antimicrobial peptide) [compound 31]
# output 1.6

---

Measured MIC MRSP 80729 of individual entries
- Test system: MRSP (Methicillin-Resistant Staphylococcus pseudintermedius)
- Protocol Summary: MIC against selected strains of MRSP
- Assay type: cell-based
- Design: key: MIC in μM (first well with no visible growth)
- Condition Label: strain 80729, Table 4
- Description: Peptides according to SEQ ID NOs as listed in Table 1 were prepared by a commercial manufacturer (CS Bio, Menlo Park, Calif.) using solid phase synthesis. Antimicrobial activity was assessed by determining the Minimal Inhibitory Concentration (MIC) against S. aureus and E. coli. Briefly, Microbroth MICs were performed using CLSI methodology (VET01-S2). […] The MIC was determined visually at the first well of no visible growth at the corresponding concentration. […]
// keep it numeric: no unit symbol after the value

Example entries and their recorded answers appear below.
Substance | MIC MRSP 80729
7 (KWCFRVCYRGVCYRRCRD; Artificial Antimicrobial peptide) [compound 7] | 1.6
1 (KWCFRVCYRGICYRRCRD; Antimicrobial peptide) [compound 1] | 1.6
8 (KWCFRVCYRGACYRRCRD; Artificial Antimicrobial peptide) [compound 8] | 1.6

# input Param readout= MIC MRSP 80729; system= MRSP (Methicillin-Resistant Staphylococcus pseudintermedius); entry= 6 (KWCFRVCRRGICYRRCRD; Artificial Antimicrobial peptide) [compound 6] ; returns value.
# output 3.1
